- systemTested: human P2X3 receptor (Homo sapiens (Human))
- Sequence (P56373 whole entry): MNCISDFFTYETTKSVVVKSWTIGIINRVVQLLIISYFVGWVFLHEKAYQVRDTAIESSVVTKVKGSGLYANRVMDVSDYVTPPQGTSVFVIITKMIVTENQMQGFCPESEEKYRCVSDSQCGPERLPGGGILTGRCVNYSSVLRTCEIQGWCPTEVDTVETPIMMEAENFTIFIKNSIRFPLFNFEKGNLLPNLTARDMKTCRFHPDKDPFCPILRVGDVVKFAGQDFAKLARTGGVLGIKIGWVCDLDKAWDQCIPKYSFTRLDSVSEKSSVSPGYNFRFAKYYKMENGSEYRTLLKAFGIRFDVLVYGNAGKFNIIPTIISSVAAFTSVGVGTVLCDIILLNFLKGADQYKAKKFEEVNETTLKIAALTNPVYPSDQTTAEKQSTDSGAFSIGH
- protocolDescription: Evaluation of human P2X3 receptor inhibitory activity (Fluo-3 calcium fluorescence, FDSS 3000, ATP stimulation);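 further: stimulus was 50 nM ATP with fluorescence followed for 3 min, and the response per well was peak post-ATP fluorescence divided by the reading at measurement start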
- Assay type: cell-based
- measurementSetup: C6BU-1 cells stably expressing human P2X3 receptor, Fluo-3 fluorescence, FDSS 3000
observable: IC50 (nM)
Give bare numbers, in nM.

Solved cases below.
CCOC(=O)CCn1c(=O)[nH]/c(=N\c2ccc3nc(C4CC4)sc3c2)n(Cc2ccc(C)cc2)c1=O
5
Cc1nc2ccc(/N=c3\[nH]c(=O)n(CCC(N)=O)c(=O)n3Cc3ccc(Cl)cc3)cc2s1
7
COC(=O)[C@@H](C)Cn1c(=O)[nH]/c(=N\c2ccc(C3=CCCC3)cc2)n(Cc2ccc(C)cc2)c1=O
125
NC(=O)c1cc(Oc2ccc(/N=c3\[nH]c(=O)[nH]c(=O)n3Cc3ccc(Cl)cc3)cc2)ccn1
14

Dear colleague, could you please provide IC50 for the molecules listed below?
1. Cc1cc(/N=c2\[nH]c(=O)n(C3CN(C(=O)OC(C)(C)C)C3)c(=O)n2Cc2ccc(Cl)cc2)ccc1OC(C)C
2. COC(=O)[C@@H](C)Cn1c(=O)[nH]/c(=N\c2ccc(C=C(C)C)c(Cl)c2)n(Cc2ccc(Cl)cc2)c1=O
3. CC(C)Oc1ccc(/N=c2\[nH]c(=O)n(CC3(CC(=O)O)CC3)c(=O)n2Cc2ccc(Cl)cc2)cc1Cl
4. C[C@@H](C(=O)O)[C@H](C)n1c(=O)[nH]/c(=N\c2ccc(OCC3CC3)cc2)n(Cc2ccc(Cl)cc2)c1=O
5. COC(=O)CCn1c(=O)[nH]/c(=N\c2cc(C(=O)OC)n(C)c2)n(Cc2ccc(C)cc2)c1=O
6. CNC(=O)[C@@H](C)Cn1c(=O)[nH]/c(=N\c2ccc(Oc3ccc(O)nc3)cc2)n(Cc2ccc(C)cc2)c1=O
7. CC(C)N1C(=O)Cc2cc(/N=c3\[nH]c(=O)n([C@@H](C)[C@@H](C)C(=O)O)c(=O)n3Cc3ccc(Cl)cc3)ccc21
8. Cc1ccc(Cn2c(Nc3ccc(OC(C)C)cc3)nc(=O)n(C(C)C)c2=O)cc1[N+](=O)[O-]

1: 20; 2: 28; 3: 10; 4: 30; 5: 787; 6: 24; 7: 203; 8: 505

Dear colleague, could you please provide IC50 for the molecules listed below?
1. O=C(O)CCn1c(=O)[nH]/c(=N\c2ccc(OCc3ccccn3)cc2)n(Cc2ccc(Cl)cc2)c1=O
2. COC(=O)C(C)(C)Cn1c(=O)[nH]/c(=N\c2ccc3nc(C)sc3c2)n(Cc2ccc(C)cc2)c1=O
3. O=C(NCC(F)(F)F)c1cc(Oc2ccc(/N=c3\[nH]c(=O)[nH]c(=O)n3Cc3ccc(Cl)cc3)cc2)ccn1
4. C[C@@H](Cn1c(=O)[nH]/c(=N\c2ccc3c(c2)CCCO3)n(Cc2ccc(Cl)cc2)c1=O)C(=O)O
5. CCc1oc2ccc(/N=c3\[nH]c(=O)n(CCCC(=O)OC)c(=O)n3Cc3ccc(Cl)cc3)cc2c1C
6. Cn1c(=O)[nH]/c(=N\c2ccc(Oc3ccnc(O)c3)cc2)n(Cc2ccc(Cl)cc2)c1=O

683
4
11
423
12
9
